Provenance of the data: paper PMC6010117

biological target: hCA IX (Homo sapiens)
metric: pKi
Answers are plain numbers, as −log10 of the molar value.

input_smiles: CN1C(=O)C(=C2C(=O)Nc3ccc(C(F)(F)F)cc32)SC1=Nc1ccc(S(N)(=O)=O)cc1
target_or_system: hCA IX (Homo sapiens)
metric: pKi
observed_result: 5.58

Provide the reported pKi of each entry below, same order.
1. Cc1ccc2c(c1)C(=C1SC(=Nc3ccc(S(N)(=O)=O)cc3)N(C)C1=O)C(=O)N2
2. CN1C(=O)C(=C2C(=O)Nc3c(Br)cccc32)SC1=Nc1ccc(S(N)(=O)=O)cc1

Reply:
1: 8.52; 2: 6.90

====

hCA XII (Homo sapiens): reported pKi for various molecules.
Sequence (O43570 25-354): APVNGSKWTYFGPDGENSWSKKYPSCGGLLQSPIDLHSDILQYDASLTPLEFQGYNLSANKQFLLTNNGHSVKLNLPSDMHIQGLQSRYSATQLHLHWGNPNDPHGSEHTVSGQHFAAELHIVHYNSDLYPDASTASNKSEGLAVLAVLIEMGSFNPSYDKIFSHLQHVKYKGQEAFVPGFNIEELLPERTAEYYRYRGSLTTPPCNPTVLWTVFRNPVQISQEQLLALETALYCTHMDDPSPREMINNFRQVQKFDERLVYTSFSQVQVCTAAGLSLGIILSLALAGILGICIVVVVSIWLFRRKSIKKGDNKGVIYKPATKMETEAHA
One number for each entry, as −log10 of the molar value.

input_smiles: Cc1ccc2c(c1)C(=C1SC(=Nc3ccc(S(N)(=O)=O)cc3)N(C)C1=O)C(=O)N2
target_or_system: hCA XII (Homo sapiens)
pKi: 6.36

Now for another entry.
Ask: Look up and report measured pKi (hCA XII (Homo sapiens)) for the following molecule: CN1C(=O)C(=C2C(=O)Nc3ccc(Cl)cc32)SC1=Nc1ccc(S(N)(=O)=O)cc1
Reply: 6.06
